- Subject of test: PD-1/PD-L1 (Homo sapiens, UniProt Q9NZQ7)
- Construct: 60535 (PD-1/NFAT-Reporter-Jurkat); Jurkat cells expressing PD-1
- Sequence (Q9NZQ7 19-290): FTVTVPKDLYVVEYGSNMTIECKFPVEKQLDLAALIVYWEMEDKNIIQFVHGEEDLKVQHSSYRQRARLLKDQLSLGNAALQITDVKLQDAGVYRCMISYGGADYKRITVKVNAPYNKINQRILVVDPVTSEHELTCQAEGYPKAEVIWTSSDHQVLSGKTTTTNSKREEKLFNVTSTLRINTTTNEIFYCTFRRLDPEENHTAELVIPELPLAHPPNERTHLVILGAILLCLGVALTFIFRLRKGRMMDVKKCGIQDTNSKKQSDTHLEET
- Experiment notes: Detection of biological activity of PD-1/PD-L1 signaling inhibition at the cellular level (NFAT luciferase reporter, PD-1/NFAT-Reporter-Jurkat cells co-cultured with TCR activator/PD-L1-CHO cells)
- Condition info: PD-1/NFAT-Reporter-Jurkat + TCR activator/PD-L1-CHO co-culture, 6 hours; Atezolizumab as positive control
- Procedure: Detection of Biological Activity of PD-1/PD-L1 Signaling Inhibition at the Cellular Level This detection method is used for evaluating the biological activity of the compounds described in the present invention at the cellular level. […] According to the above detection method, the compounds of the present invention were evaluated for their biological activity at the cellular level, and the activity results are shown in the following table.
Reported property: EC50 (nM)

Molecule	Reported property	Experimental result
COc1cc(Cn2ncc3c(-c4cccc(-c5cc(Cl)c(CNC[C@@H]6CCC(=O)N6)c(OC)c5)c4Cl)cccc32)c(Cl)cc1CN(C)CC1CCC(C(=O)O)CC1 (stereo partly drawn)	EC50	145
COc1cc(Cn2ncc3c(-c4cccc(-c5ccc(CNC[C@@H]6CCC(=O)N6)cc5)c4Cl)cccc32)c(C#N)cc1CN[C@@H](CO)C(=O)O	EC50	142
COc1cc(CNC[C@@H]2CCC(=O)N2)ccc1-c1cccc(-c2cccc3c2cnn3Cc2cc(OCc3cncc(C#N)c3)c(CN[C@@H](CO)C(=O)O)cc2Cl)c1Cl	EC50	112

----------
- Subject of test: PD-1/PD-L1 (Homo sapiens)
- Construct: 60535 (PD-1/NFAT-Reporter-Jurkat); Jurkat cells expressing PD-1
- Experiment notes: Detection of biological activity of PD-1/PD-L1 signaling inhibition at the cellular level (NFAT luciferase reporter, PD-1/NFAT-Reporter-Jurkat cells co-cultured with TCR activator/PD-L1-CHO cells)
- Condition info: PD-1/NFAT-Reporter-Jurkat + TCR activator/PD-L1-CHO co-culture, 6 hours; Atezolizumab as positive control
pEC50: −log10 of the molar value.

Compound	pEC50
COc1cc(Cn2ncc3c(-c4cccc(-c5ccc(CNC[C@@H]6CCC(=O)N6)c(OC)n5)c4Cl)cccc32)c(Cl)c(F)c1CN(C)C12CCC(C(=O)O)(CC1)CC2 [Compound 157]	7.05
COc1cc(Cn2ncc3c(-c4cccc(-c5cc(F)c(CNC[C@@H]6CCC(=O)N6)c(OC)c5)c4Cl)cccc32)c([N+](=O)[O-])cc1CN(C)[C@H]1CC[C@H](CC(=O)O)CC1 [Compound 144]	7.40
COc1cc(Cn2ncc3c(-c4cccc(-c5cc(F)c(CNC[C@@H]6CCC(=O)N6)c(OC)c5)c4C)cccc32)c(Cl)cc1CN(C)C12CCC(C(=O)O)(CC1)CC2 [Compound 161]	7.12
COc1cc(Cn2ncc3c(-c4cccc(-c5ccc(CNC[C@@H]6CCC(=O)N6)cc5)c4Cl)cccc32)c([N+](=O)[O-])cc1CN[C@@H](CO)C(=O)O [Compound 76]	7.31
COc1cc(Cn2ncc3c(-c4cccc(-c5cc(F)c(CNC[C@@H]6CCC(=O)N6)c(OC)c5)c4Cl)cccc32)c(Cl)cc1CN(C)C12CCC(CC(=O)O)(CC1)CC2 [Compound 160]	7.34
COc1cc(Cn2ncc3c(-c4cccc(-c5ccc(CNC[C@@H]6CCC(=O)N6)cc5)c4Cl)cccc32)c(Cl)cc1CNC1CCC(C(=O)O)CC1 (stereo partly drawn) [Compound 41]	6.53
COc1cc(Cn2ncc3c(-c4cccc(-c5cc(F)c(CNC[C@@H]6CCC(=O)N6)c(OC)c5)c4Cl)cccc32)c(Cl)cc1CN(C)C1CCC(CC(=O)O)CC1 (stereo partly drawn) [Compound 115]	7.80
COc1cc(Cn2ncc3c(-c4cccc(-c5ccc(CNC[C@@H]6CCC(=O)N6)cc5)c4Cl)cccc32)c(Cl)cc1CN[C@@H](CO)C(=O)O [Compound 30]	7.09
COc1cc(Cn2ncc3c(-c4cccc(-c5cc(F)c(CNC[C@@H]6CCC(=O)N6)c(OC)c5)c4Cl)cccc32)c(Cl)cc1CN(C)C12CCC(C(=O)O)(CC1)CC2 [Compound 116]	7.80
COc1cc(Cn2ncc3c(-c4cccc(-c5ccc(CNC[C@@H]6CCC(=O)N6)cc5)c4Cl)cccc32)c(Cl)cc1CN1CCC[C@H](C(=O)O)C1 [Compound 36]	6.34
N#Cc1cncc(COc2cc(Cn3ncc4c(-c5cccc(-c6ccc(CCN7CC[C@@H](O)C7)cc6)c5Cl)cccc43)c(Cl)cc2CN[C@@H](CO)C(=O)O)c1 [Compound 18]	6.25
COc1cc(-c2cccc(-c3cccc4c3cnn4Cc3cc(OC)c(CN[C@H]4CC[C@@H](C(=O)O)CC4)cc3Cl)c2Cl)ccc1CNC[C@@H]1CCC(=O)N1 [Compound 59]	7.43
COc1cc(-c2cccc(-c3cccc4c3cnn4Cc3cc(OC)c(CN(C)C[C@H]4CC[C@H](C(=O)O)CC4)cc3Cl)c2Cl)ccc1CNC[C@@H]1CCC(=O)N1 [Compound 55]	7.18
COc1cc(-c2cccc(-c3cccc4c3cnn4Cc3cc(OC)c(CN(C)C4CCC(CCC(=O)O)CC4)cc3Cl)c2Cl)ccc1CNC[C@@H]1CCC(=O)N1 (stereo partly drawn) [Compound 121]	7.47
COc1cc(Cn2ncc3c(-c4cccc(-c5ccc(CNC[C@@H]6CCC(=O)N6)cc5)c4Cl)cccc32)c(Cl)cc1CN1CC[C@@H](C(=O)O)C1 [Compound 33]	6.29
CC(C)OC(=O)[C@H](CO)NCc1cc(Cl)c(Cn2ncc3c(-c4cccc(-c5ccc(CNC[C@@H]6CCC(=O)N6)cc5)c4Cl)cccc32)cc1OCc1cncc(C#N)c1 [Compound 23]	6.29
COc1cc(-c2cccc(-c3cccc4c3cnn4Cc3cc(OC(C)C)c(CN(C)CC4CCC(C(=O)O)CC4)cc3Cl)c2Cl)ccc1CNC[C@@H]1CCC(=O)N1 (stereo partly drawn) [Compound 110]	6.31
CCN(Cc1cc(Cl)c(Cn2ncc3c(-c4cccc(-c5cc(F)c(CNC[C@@H]6CCC(=O)N6)c(OC)c5)c4Cl)cccc32)cc1OC)C12CCC(C(=O)O)(CC1)CC2 [Compound 159]	7.43
COc1cc(-c2cccc(-c3cccc4c3cnn4Cc3cc(OC)c(CN(C)[C@H]4C[C@@H](C(=O)O)C4)cc3Cl)c2Cl)ccc1CNC[C@@H]1CCC(=O)N1 [Compound 104]	7.34
COc1cc(-c2cccc(-c3cccc4c3cnn4Cc3cc(OC)c(CN4CCC(CC(=O)O)CC4)cc3Cl)c2Cl)ccc1CNC[C@@H]1CCC(=O)N1 [Compound 94]	6.85
N#Cc1cncc(COc2cc(Cn3ncc4c(-c5cccc(-c6ccc(CNC[C@@H]7CCC(=O)N7)cc6)c5F)cccc43)c(Cl)cc2CN[C@@H](CO)C(=O)O)c1 [Compound 12]	6.59
